system: bloodstream-form Trypanosoma brucei; assay: Activity against bloodstream-form Trypanosoma brucei (Alamar Blue growth inhibition); format: cell-based, Trypanosoma brucei (strain 427); settings: Trypanosoma brucei; bloodstream form; concentration that inhibits growth by 90%; read-out: T. brucei IC90
metric: IC90 (nM)
Answer in nM, number only, no unit symbol.

{"columns": ["molecule", "metric", "observed"],
 "data": [
  ["O=C(NCc1ccc(C2C3CC4CC(C3)CC2C4)cc1)c1ccc([N+](=O)[O-])o1 (stereo not shown)", "IC90", 31],
  ["O=C(NCCCn1cnc([N+](=O)[O-])n1)c1ccc(C23CC4CC(CC(C4)C2)C3)cc1", "IC90", 310]
]}

Let us move to another entry and its IC90.
What value of IC90 has been reported for the following molecule? `O=C(Cc1ccc(C23CC4CC(CC(C4)C2)C3)cc1)NCCn1cnc([N+](=O)[O-])n1`
1800
